# Test system: HGGX6 (H3.3 G34R paediatric high-grade glioma line)
# assayName: growth inhibition (% activity, log2 RLU normalised to DMSO / staurosporine); higher = more growth inhibition
# runConditions: 33 µM
measuredProperty: growth inhibition (%)
Numbers only; they are read as %.

Task: Please look at this compound and report its growth inhibition: Oc1ncnc2[nH]ncc12
Output: -3.6

Task: Please look at this compound and report its growth inhibition: O=NO
Output: 1.76

Task: Please look at this compound and report its growth inhibition: O=C([O-])[C@H](O)[C@@H](O)[C@H](O)[C@H](O)CO.[Na+]
Output: 0.0619

Task: Please look at this compound and report its growth inhibition: CCc1cccc2c3c([nH]c12)C(CC)(CC(=O)O)OCC3 (configuration not stated)
Output: 0.44

Task: Please look at this compound and report its growth inhibition: N=C(N=C(N)N)N1CCOCC1
Output: 0.804

Task: Please look at this compound and report its growth inhibition: N[C@@H]1CN(c2c(F)cc3c(=O)c(C(=O)O)cn([C@@H]4C[C@@H]4F)c3c2Cl)CC12CC2
Output: 0.649

Task: Please look at this compound and report its growth inhibition: COc1cc2c(cc1OC)CC(=O)N(CCCN(C)C[C@H]1Cc3cc(OC)c(OC)cc31)CC2
Output: 0.769

Task: Please look at this compound and report its growth inhibition: CCC1(c2ccccc2)C(=O)NCNC1=O
Output: -0.575

Task: Please look at this compound and report its growth inhibition: CNCCc1ccccn1
Output: 1.49

Task: Please look at this compound and report its growth inhibition: CCCCC1C(=O)N(c2ccccc2)N(c2ccccc2)C1=O
Output: -2.46

Task: Please look at this compound and report its growth inhibition: CCC[C@H](NC(=O)[C@@H]1[C@H]2CCC[C@H]2CN1C(=O)[C@@H](NC(=O)[C@@H](NC(=O)c1cnccn1)C1CCCCC1)C(C)(C)C)C(=O)C(=O)NC1CC1
Output: 2.24

Task: Please look at this compound and report its growth inhibition: Cc1cccc(Nc2ccccc2C(=O)O)c1C
Output: -4.45

----------
# Tested on: DIPGX29 (H3.3 K27M diffuse intrinsic pontine glioma line)
# assayName: growth inhibition (% activity, log2 RLU normalised to DMSO / staurosporine); higher = more growth inhibition
# runConditions: 33 µM
Provide the recorded growth inhibition for the entries that follow.
Numbers only; they are read as %.

Task: Please look at this molecule and report its growth inhibition: CO[C@H]1/C=C/O[C@@]2(C)Oc3c(C)c(O)c4c(O)c(c5c(nc6cc(C)ccn65)c4c3C2=O)NC(=O)/C(C)=C\C=C\[C@H](C)[C@H](O)[C@@H](C)[C@@H](O)[C@@H](C)[C@H](OC(C)=O)[C@@H]1C
Output: -0.23

Task: Please look at this molecule and report its growth inhibition: CC(=O)S[C@@H]1CC2=CC(=O)CC[C@]2(C)[C@H]2CC[C@@]3(C)[C@@H](CC[C@@]34CCC(=O)O4)[C@H]12
Output: 1.45

Task: Please look at this molecule and report its growth inhibition: O=C(O)C1(C(=O)O)CCC1.[NH2-].[NH2-].[Pt+2]
Output: -2.53

----------
# System: DIPGX9 (diffuse intrinsic pontine glioma line)
# assayName: growth inhibition (% activity, log2 RLU normalised to DMSO / staurosporine); higher = more growth inhibition
# runConditions: 33 µM
measuredProperty: growth inhibition (%)
Numbers only; they are read as %.

Task: Please look at this compound and report its growth inhibition: CC(C)C[C@H](NC(=O)[C@H](Cc1ccccc1)NC(=O)c1cnccn1)B(O)O
Output: 59.1

Task: Please look at this compound and report its growth inhibition: Cc1ncc([N+](=O)[O-])n1CC(C)O (centres undefined)
Output: 0.505

Task: Please look at this compound and report its growth inhibition: Cc1cn(-c2cc(NC(=O)c3ccc(C)c(Nc4nccc(-c5cccnc5)n4)c3)cc(C(F)(F)F)c2)cn1
Output: 1.74

Task: Please look at this compound and report its growth inhibition: CCNC(=O)CCC/C=C\C[C@@H]1[C@@H](/C=C/[C@@H](O)CCc2ccccc2)[C@H](O)C[C@@H]1O
Output: 0.624

Task: Please look at this compound and report its growth inhibition: Cc1onc(-c2ccccc2)c1-c1ccc(S(N)(=O)=O)cc1
Output: 0.672

Task: Please look at this compound and report its growth inhibition: CC(C)C[C@H](NC(=O)[C@H](CCc1ccccc1)NC(=O)CN1CCOCC1)C(=O)N[C@@H](Cc1ccccc1)C(=O)N[C@@H](CC(C)C)C(=O)[C@@]1(C)CO1
Output: 55

Task: Please look at this compound and report its growth inhibition: COc1cc(C(=O)NS(=O)(=O)c2ccccc2C)ccc1Cc1cn(C)c2ccc(NC(=O)OC3CCCC3)cc12
Output: -1.19

Task: Please look at this compound and report its growth inhibition: C[C@]12CC[C@H](O)CC1=CC[C@@H]1[C@@H]2CC[C@]2(C)C(c3cccnc3)=CC[C@@H]12
Output: 2.81

Task: Please look at this compound and report its growth inhibition: c1ccc2c(CC3=NCCN3)cccc2c1
Output: 1.2

Ref: the supplement of paper PMC8253809
